This collection of values is drawn from ChEMBL document CHEMBL2218924.

- experimental_system: Focal adhesion kinase 1 (Homo sapiens)
- applied_conditions: at 10 µM
measure: residual activity (%)

>>> df
                            compound_string            measure  value_unit  readout_number
0  O=C1NC(=O)/C(=C/c2ccc3c(c2)OC(F)(F)O3)S1  residual activity           %              95
1  CC[n+]1c(/C=C/N(C)c2ccccc2)n(-c2ccccc2)c2ccc(-c3nc4ccccc4s3)cc21  residual activity           %              80
2  CO[C@H]1[C@@H](OC)C[C@H](C)[C@@H](OC)C2=CC(=O)C=C(NC(=O)/C(C)=C/C=C/[C@H](OC)[C@@H](OC(N)=O)/C(C)=C/[C@@H]1C)C2=O  residual activity           %              91
3              Oc1c2ccccc2c2c3c(cccc13)N=N2  residual activity           %               9
4           Cc1nc2cc3nc(-c4cccs4)cnc3cc2n1C  residual activity           %             105
5  COc1cc2ncnc(Nc3ccc(Oc4ccccc4)cc3)c2cc1OC  residual activity           %              71
6  Oc1ccc(-c2nc(-c3ccc(F)cc3)c(-c3ccncc3)[nH]2)cc1  residual activity           %             113
7  N#CCCc1ccc2c(c1)-c1[nH]c3ccc([N+](=O)[O-])cc3c1CC(=O)N2  residual activity           %              22
